Assay: In vivo pharmacokinetics (rat), single oral administration
Conditions: rat, plasma; single oral administration 50 mg/kg, male Wistar rats; extrapolated to ∞
Kindly supply the reported AUC(0-inf) values for the records listed here.
The reply should read as a number followed by its unit.

For record `Nc1cccc(-c2c(O)ccc3cc(-c4cccc(O)c4)ccc23)c1` the listed AUC(0-inf) is 337 ng·h/mL

For record `Oc1cccc(-c2ccc3c(-c4cccnc4)c(O)ccc3c2)c1` the listed AUC(0-inf) is 203 ng·h/mL

====

Kindly supply the reported microsomal CLint values for the records listed here.
Assay: Test for metabolic stability, liver microsomes
Details: rat, liver microsomes, pH 7.4
Only the number, expressed in µL/min/mg, is required.

For record `Oc1cccc(-c2ccc3c(-c4cccnc4)c(O)ccc3c2)c1` the listed microsomal CLint is 340

For record `COc1ccc(-c2c(O)ccc3cc(-c4cccc(O)c4)ccc23)cn1` the listed microsomal CLint is 92.8

====

Kindly supply the reported AUC(0-t) values for the records listed here.
Assay: In vivo pharmacokinetics (rat), single oral administration
Conditions: rat, plasma; single oral administration 50 mg/kg, male Wistar rats

For record `Nc1cccc(-c2c(O)ccc3cc(-c4cccc(O)c4)ccc23)c1` the listed AUC(0-t) is 337 ng·h/mL

For record `Oc1cccc(-c2ccc3c(-c4cccnc4)c(O)ccc3c2)c1` the listed AUC(0-t) is 203 ng·h/mL

====

Target: 17β-HSD1 (Homo sapiens (Human), UniProt P14061)
Sequence (P14061 whole entry): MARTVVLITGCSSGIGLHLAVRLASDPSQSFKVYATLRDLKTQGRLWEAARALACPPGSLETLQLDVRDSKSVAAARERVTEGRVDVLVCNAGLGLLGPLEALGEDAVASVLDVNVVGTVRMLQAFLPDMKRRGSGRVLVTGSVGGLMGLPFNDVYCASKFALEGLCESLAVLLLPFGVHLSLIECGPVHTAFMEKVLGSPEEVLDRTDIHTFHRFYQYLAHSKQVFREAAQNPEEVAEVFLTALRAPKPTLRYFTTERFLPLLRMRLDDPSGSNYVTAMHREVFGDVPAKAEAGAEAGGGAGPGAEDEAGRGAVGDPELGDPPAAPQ
Experiment: 17β-HSD1 test assay (recombinant protein from Sf9 insect cells, 3H-estrone/NADPH)
Type: biochemical
Conditions: read-out: HSD1 100 nM (% inhibition); inhibitor 100 nM
property: inhibition at 0.1 µM (%)
Only the number, expressed in %, is required.

Record `O=S(=O)(Nc1cccc(-c2c(O)ccc3cc(-c4cccc(O)c4)ccc23)c1)c1cc(Br)c(Br)s1` has 17β-HSD1 (Homo sapiens (Human), UniProt P14061) inhibition at 0.1 µM equal to 54.5

Record O=C(O)c1cccc(-c2ccc3cc(O)ccc3c2)c1 [Compound 7, 3-(6-hydroxy-2-naphthyl)benzoic acid] has 17β-HSD1 (Homo sapiens (Human), UniProt P14061) inhibition at 0.1 µM equal to 36.3

====

Target: 17β-HSD2 (Homo sapiens (Human), UniProt P37059)
Sequence (P37059 whole entry): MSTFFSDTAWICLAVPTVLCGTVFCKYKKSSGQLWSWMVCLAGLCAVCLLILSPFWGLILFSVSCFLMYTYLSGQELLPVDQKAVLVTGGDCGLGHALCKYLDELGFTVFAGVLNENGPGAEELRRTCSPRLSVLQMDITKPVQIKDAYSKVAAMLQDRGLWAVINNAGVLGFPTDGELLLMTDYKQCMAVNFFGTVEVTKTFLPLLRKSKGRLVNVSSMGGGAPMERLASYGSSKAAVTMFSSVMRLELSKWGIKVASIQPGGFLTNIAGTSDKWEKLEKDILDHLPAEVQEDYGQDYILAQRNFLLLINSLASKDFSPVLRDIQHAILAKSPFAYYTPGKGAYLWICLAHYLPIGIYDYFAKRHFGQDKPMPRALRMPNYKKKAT
Experiment: 17β-HSD2 test assay (recombinant protein from Sf9 insect cells, 3H-estradiol/NAD+)
Type: biochemical
Settings: read-out: HSD2 1 μM (% inhibition); inhibitor 1 μM
property: inhibition at 1 µM (%)
Only the number, expressed in %, is required.

For record `CNC(=O)CCc1c(O)ccc2cc(-c3cccc(O)c3)ccc12` the listed inhibition at 1 µM is 35.8

For record `Nc1cccc(-c2c(O)ccc3cc(-c4cccc(O)c4)ccc23)c1` the listed inhibition at 1 µM is 39.1

For record `O=C(/C=C/c1c(O)ccc2cc(-c3cccc(O)c3)ccc12)Nc1ccccc1` the listed inhibition at 1 µM is 76.9

For record `Oc1cccc(-c2ccc3c(-c4ccc(N5CCOCC5)cc4)c(O)ccc3c2)c1` the listed inhibition at 1 µM is 31.9

For record `O=S(=O)(Nc1nccs1)c1cccc(-c2c(O)ccc3cc(-c4cccc(O)c4)ccc23)c1` the listed inhibition at 1 µM is 71

For record `CNC(=O)/C=C/c1c(O)ccc2cc(-c3cccc(O)c3)ccc12` the listed inhibition at 1 µM is 73.2

For record `Oc1cccc(-c2ccc3c(-c4cncnc4)c(O)ccc3c2)c1` the listed inhibition at 1 µM is 51.7

For record `Oc1cccc(-c2ccc3c(-c4ccncc4)c(O)ccc3c2)c1` the listed inhibition at 1 µM is 48.5

For record `Oc1cccc(-c2ccc3c(-c4cccnc4)c(O)ccc3c2)c1` the listed inhibition at 1 µM is 90.3

====

Molecular target: estrogen receptor β (Homo sapiens (Human))
Sequence (Q92731 whole entry): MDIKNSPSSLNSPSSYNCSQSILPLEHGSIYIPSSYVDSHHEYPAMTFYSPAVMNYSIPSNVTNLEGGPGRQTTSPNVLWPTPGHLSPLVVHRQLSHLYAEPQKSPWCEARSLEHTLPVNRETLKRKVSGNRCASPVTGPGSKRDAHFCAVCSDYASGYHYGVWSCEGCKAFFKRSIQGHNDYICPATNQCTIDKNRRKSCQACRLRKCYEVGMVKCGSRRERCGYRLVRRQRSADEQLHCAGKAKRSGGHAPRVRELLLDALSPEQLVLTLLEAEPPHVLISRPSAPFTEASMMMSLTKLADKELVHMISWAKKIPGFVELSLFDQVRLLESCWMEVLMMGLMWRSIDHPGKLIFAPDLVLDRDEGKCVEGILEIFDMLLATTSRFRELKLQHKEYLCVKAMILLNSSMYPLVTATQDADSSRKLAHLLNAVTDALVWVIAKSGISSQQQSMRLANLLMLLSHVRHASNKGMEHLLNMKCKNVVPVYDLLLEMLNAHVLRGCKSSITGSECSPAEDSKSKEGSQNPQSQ
Test: Estrogen receptor binding assay, ERβ
Conditions: relative binding affinity (estradiol: 100%)
Rule: RBA ERβ [%] below 0.04% gives Y. Equal to or above 0.04% gives N.

In plain terms, does `Oc1cccc(-c2ccc3c(Br)c(O)ccc3c2)c1` come in under 0.04% for RBA ERβ [%]?
N

In plain terms, does Oc1cccc(-c2ccc3c(-c4cccc(O)c4)c(O)ccc3c2)c1 [Compound 57, 1,6-Bis(3-hydroxyphenyl)naphthalene-2-ol] come in under 0.04% for RBA ERβ [%]?
Y

In plain terms, does `O=S(=O)(Nc1nccs1)c1cccc(-c2c(O)ccc3cc(-c4cccc(O)c4)ccc23)c1` come in under 0.04% for RBA ERβ [%]?
Y

In plain terms, does Oc1cccc(-c2ccc3cc(O)ccc3c2)c1 [Compound 19, 6-(3-Hydroxyphenyl)-2-naphthol] come in under 0.04% for RBA ERβ [%]?
N

In plain terms, does Oc1cccc(-c2ccc3c(-c4ccccc4)c(O)ccc3c2)c1 [Compound 56, 6-(3-Hydroxyphenyl)-1-phenyl-2-naphthol] come in under 0.04% for RBA ERβ [%]?
N

In plain terms, does `Oc1cccc(-c2ccc3c(-c4ccncc4)c(O)ccc3c2)c1` come in under 0.04% for RBA ERβ [%]?
Y

====

Molecular target: 17β-HSD2 (Homo sapiens (Human), UniProt P37059)
Test: 17β-HSD2 test assay (recombinant protein from Sf9 insect cells, 3H-estradiol/NAD+)
Assay type: biochemical
Conditions: read-out: HSD2 100 nM (% inhibition); inhibitor 100 nM
Kindly supply the reported inhibition at 0.1 µM values for the records listed here.
Only the number, expressed in %, is required.

For record O=C(/C=C/c1c(O)ccc2cc(-c3cccc(O)c3)ccc12)Nc1ccccc1 [Compound 40] the listed inhibition at 0.1 µM is 28.1

For record O=C(O)CCC(=O)Nc1ccc(-c2c(O)ccc3cc(-c4cccc(O)c4)ccc23)cc1 [Compound 67] the listed inhibition at 0.1 µM is 24.2

For record Oc1cccc(-c2ccc3cc(O)ccc3c2)c1 [Compound 19, 6-(3-Hydroxyphenyl)-2-naphthol] the listed inhibition at 0.1 µM is 12.4

For record O=S(=O)(Nc1nccs1)c1cccc(-c2c(O)ccc3cc(-c4cccc(O)c4)ccc23)c1 [Compound 69] the listed inhibition at 0.1 µM is 24

For record CC(=O)Nc1cccc(-c2c(O)ccc3cc(-c4cccc(O)c4)ccc23)c1 [Compound 66] the listed inhibition at 0.1 µM is 24.1

For record CNC(=O)/C=C/c1c(O)ccc2cc(-c3cccc(O)c3)ccc12 [Compound 39] the listed inhibition at 0.1 µM is 33.9

For record N#Cc1cc(-c2cccc(O)c2)cc2ccc(O)cc12 [Compound 53] the listed inhibition at 0.1 µM is 18

For record Oc1cccc(-c2ccc3c(-c4cncnc4)c(O)ccc3c2)c1 [Compound 61] the listed inhibition at 0.1 µM is 15.5

For record Oc1cccc(-c2ccc3c(-c4ccoc4)c(O)ccc3c2)c1 [Compound 58] the listed inhibition at 0.1 µM is 60.6

For record Oc1cccc(-c2ccc3c(-c4ccc(N5CCOCC5)cc4)c(O)ccc3c2)c1 [Compound 65] the listed inhibition at 0.1 µM is 12.4

For record Oc1cccc(-c2ccc3c(-c4ccccc4)c(O)ccc3c2)c1 [Compound 56, 6-(3-Hydroxyphenyl)-1-phenyl-2-naphthol] the listed inhibition at 0.1 µM is 22.1

For record Oc1cccc(-c2ccc3c(Br)c(O)ccc3c2)c1 [Compound 52] the listed inhibition at 0.1 µM is 19

For record CS(=O)(=O)Nc1cccc(-c2c(O)ccc3cc(-c4cccc(O)c4)ccc23)c1 [Compound 64] the listed inhibition at 0.1 µM is 31.1

====

Kindly supply the reported AUC(0-t) values for the records listed here.
Assay: In vivo pharmacokinetics (rat), cassette dosing method
Settings: rat, plasma, po; cassette dosing perorally 10 mg/kg, male Wistar rats
Only the number, expressed in ng·h/mL, is required.

For record Oc1cccc(-c2ccc3cc(O)ccc3c2)c1 [Compound 19, 6-(3-Hydroxyphenyl)-2-naphthol] the listed AUC(0-t) is 29700

For record `CS(=O)(=O)Nc1cccc(-c2c(O)ccc3cc(-c4cccc(O)c4)ccc23)c1` the listed AUC(0-t) is 1330

For record `Nc1cccc(-c2c(O)ccc3cc(-c4cccc(O)c4)ccc23)c1` the listed AUC(0-t) is 539

For record Oc1cccc(-c2ccc3c(-c4cccc(O)c4)c(O)ccc3c2)c1 [Compound 57, 1,6-Bis(3-hydroxyphenyl)naphthalene-2-ol] the listed AUC(0-t) is 10700

For record Oc1cccc(-c2ccc3c(-c4ccccc4)c(O)ccc3c2)c1 [Compound 56, 6-(3-Hydroxyphenyl)-1-phenyl-2-naphthol] the listed AUC(0-t) is 11700

====

Experiment: In vivo pharmacokinetics (rat), cassette dosing method
Conditions: cassette dosing perorally 10 mg/kg, male Wistar rats
property: T1/2z (h)
Only the number, expressed in h, is required.

For record Oc1cccc(-c2ccc3c(-c4cccc(O)c4)c(O)ccc3c2)c1 [Compound 57, 1,6-Bis(3-hydroxyphenyl)naphthalene-2-ol] the listed T1/2z is 0.9

For record Oc1cccc(-c2ccc3c(-c4ccccc4)c(O)ccc3c2)c1 [Compound 56, 6-(3-Hydroxyphenyl)-1-phenyl-2-naphthol] the listed T1/2z is 5.9

For record Nc1cccc(-c2c(O)ccc3cc(-c4cccc(O)c4)ccc23)c1 [Compound 68] the listed T1/2z is 2.4

For record CS(=O)(=O)Nc1cccc(-c2c(O)ccc3cc(-c4cccc(O)c4)ccc23)c1 [Compound 64] the listed T1/2z is 1.1

For record Oc1cccc(-c2ccc3cc(O)ccc3c2)c1 [Compound 19, 6-(3-Hydroxyphenyl)-2-naphthol] the listed T1/2z is 4.4
